Test system: Wild type
Assay: S. aureus survival, RN4220 and DeltatarO strains – OD600, teichoic acid synthesis inhibitors, primary screen (AID 463173)
Details: S. aureus RN4220 wild type/DeltatarO growth, OD600, 18 h, hits give low values, screened at 18.75 µg/mL (by protocol)
About 1,700 (3.3%) of roughly 52,000 compounds were called active. The list comes from a sample in which actives are over-represented; it also holds close analogues and randomly drawn compounds.
measurementLabel: survival

Quick one: give measured survival for COc1ccc(NC(=O)CS(=O)CC(=O)Nc2cc(OC)ccc2OC)cc1 (stereo not given)
107% (inactive)

Quick one: give measured survival for CC1Cc2ccccc2N1C(=O)c1cc2sccc2n1Cc1ccc(F)cc1 (stereo not given)
119% (inactive)

Quick one: give measured survival for COc1ccc2c(c1)c1c(c(=O)n(-c3cccc(C)c3)c(=O)n1CC(=O)N1CCCC1)n2C
82% (inactive)

Quick one: give measured survival for CSc1nnc2c(n1)OC(c1cccc(O)c1Cl)Nc1ccccc1-2 (stereo not given)
71% (inactive)

Quick one: give measured survival for C=Cc1ccc(Cn2c(=O)n(-c3cccc(Cl)c3)c(=O)c3c4c(sc32)CN(C(C)=O)CC4)cc1
81% (inactive)

Quick one: give measured survival for Cc1ccc(-n2c(C)cc(CO)c2C)cc1
100% (inactive)

Quick one: give measured survival for CCOC(=O)c1ccc(NC(=O)CSc2ccc(-c3ccccn3)nn2)cc1
90% (inactive)

Quick one: give measured survival for COc1ccc(CN(C(=O)c2cc(=O)c3ccccc3o2)C2CCS(=O)(=O)C2)cc1OC (stereo not given)
118% (inactive)

Quick one: give measured survival for CCOC(=O)c1c(S(=O)(=O)N2CCCC(C(=O)Nc3ncccc3C)C2)c(C)n(C)c1C (stereo not given)
71% (inactive)

Quick one: give measured survival for Cc1ccccc1Nc1c(-c2ccncc2)nc2ccc(Cl)cn12
128% (inactive)

----------
System: Wild type
Test: S. aureus survival, RN4220 and DeltatarO strains – OD600, teichoic acid synthesis inhibitors, primary screen (AID 463173)
Conditions: S. aureus RN4220 wild type/DeltatarO growth, OD600, 18 h, hits give low values, screened at 18.75 µg/mL (by protocol)
About 1,700 (3.3%) of roughly 52,000 compounds were called active. The entries come from a sample that favours actives as a whole.
measurementLabel: survival (%)
Write the number in % without appending the unit.

Quick one: give measured survival for COc1ccc(NC(=O)Cn2cc(S(=O)(=O)c3ccccc3)c(=O)c3cc4c(cc32)OCO4)cc1
79

Quick one: give measured survival for CCC(=O)N1CCc2cc(S(=O)(=O)CCC(=O)N3CCN(c4cccc(C)c4)C(C)C3)ccc21 (configuration not stated)
83

Quick one: give measured survival for CCOC(=O)N1CCc2c(sc(NCc3sccc3C)c2C(=O)Nc2cc(OC)ccc2OC)C1
65

Quick one: give measured survival for COc1ccc(-n2ccnc(NCc3ccc(C)cc3)c2=O)cc1OC
87

Quick one: give measured survival for CCn1c(C(=O)NCc2cccc(Br)c2)cc2oc3ccccc3c21
7

Quick one: give measured survival for CCN1c2ccccc2-c2nc(SCC(=O)NCc3ccc(C)cc3)ncc2S1(=O)=O
79

Quick one: give measured survival for COc1ccc(C2c3c(n(C)c4ccccc34)C(=O)N2CC(=O)Nc2cccc(F)c2)cc1 (configuration not stated)
85

Quick one: give measured survival for COc1ccc(-n2ccnc(NCc3cccs3)c2=O)cc1
-3

Quick one: give measured survival for CCN(CC)C(=O)c1cc(-c2ccc(Cl)cc2)on1
51

Quick one: give measured survival for Cc1ccccc1CNC(=O)c1ccc(Cn2c(SCc3cccc(F)c3)nc3cccnc32)cc1
70

Quick one: give measured survival for Cc1ccc(C(c2sc3nc(-c4ccco4)nn3c2O)N2CCC3(CC2)OCCO3)cc1 (configuration not stated)
70

Quick one: give measured survival for COc1ccc(-c2cn3c(n2)sc2cc(C(=O)Nc4cc(OC)cc(OC)c4)ccc23)cc1
98

Quick one: give measured survival for O=C(Nc1ccc(F)c(F)c1)C1CCCN1S(=O)(=O)c1cccc2nsnc12 (configuration not stated)
77

Quick one: give measured survival for O=C(CSc1ncc2c(n1)-c1ccccc1N(Cc1ccc(F)cc1)S2(=O)=O)NCc1ccccc1
76

Quick one: give measured survival for Oc1c(C(c2ccccc2Cl)N2CCOCC2)sc2nc(-c3ccco3)nn12 (configuration not stated)
-2

Quick one: give measured survival for CCOC(=O)c1noc2ncn(CC(=O)Nc3ccccc3OC)c(=O)c12
133

Quick one: give measured survival for COc1ccc(-n2ccnc(NCc3ccccc3OC)c2=O)cc1
85

Quick one: give measured survival for Oc1c(C(c2ccccc2)N2CCC3(CC2)OCCO3)sc2nc(-c3ccco3)nn12 (configuration not stated)
73

Quick one: give measured survival for CCOC(=O)c1noc2ncn(CC(=O)Nc3ccc(F)cc3Cl)c(=O)c12
-6

Quick one: give measured survival for COc1ccc(NC(=O)c2c(NCc3cccc(OC)c3)sc3c2CCC3)cc1
65

Quick one: give measured survival for Oc1c(C(c2ccc(Cl)cc2)N2CCC3(CC2)OCCO3)sc2nc(-c3ccco3)nn12 (configuration not stated)
0

Quick one: give measured survival for Oc1c(C(c2ccccc2)N2CCCC2)sc2nc(-c3ccco3)nn12 (configuration not stated)
-3

Quick one: give measured survival for CCn1c(C(=O)NCc2ccccc2Br)cc2oc3ccccc3c21
36

Quick one: give measured survival for CC(C)(C)c1ccc(OCCCC(=O)N2CCOCC2)cc1
102

Quick one: give measured survival for COc1ccc(N2CC3=C(C2=O)C(c2ccc(O)c(OC)c2)NC(=O)N3C)cc1 (configuration not stated)
71

Quick one: give measured survival for COc1ccc(-n2ccnc(NCc3cccs3)c2=O)cc1OC
80

Quick one: give measured survival for Cc1cc(C)cc(-n2ccn(CC(=O)Nc3ccccc3F)c(=O)c2=O)c1
82

Quick one: give measured survival for CCn1c(C(=O)NCc2ccc(F)cc2)cc2oc3ccccc3c21
115

Quick one: give measured survival for CCN(CC)CCCNC(=O)CCCn1ncn2c(cc3occc32)c1=O
85

Quick one: give measured survival for O=C(NCc1ccncc1)C1CCN(S(=O)(=O)c2ccccc2)CC1
109

Quick one: give measured survival for CCc1ccc(CNC(=O)c2ccc3c(c2)nc2n3CCC(C)C2)cc1 (configuration not stated)
127

Quick one: give measured survival for Oc1c(C(c2ccccc2)N2CCN(Cc3ccccc3)CC2)sc2nc(-c3ccco3)nn12 (configuration not stated)
10

Quick one: give measured survival for CCCn1cc(S(=O)(=O)c2ccccc2)c(=O)c2cc(F)c(N3CCCC(C)C3)cc21 (configuration not stated)
71

Quick one: give measured survival for CN1C(=O)Cc2cc(S(=O)(=O)CCC(=O)N3CCN(c4cccc(Cl)c4)CC3)ccc21
83

Quick one: give measured survival for Cc1ccc(C(c2sc3nc(-c4ccco4)nn3c2O)N2CCN(Cc3ccccc3)CC2)cc1 (configuration not stated)
121

Quick one: give measured survival for COc1ccc(S(=O)(=O)N2CCN(Cc3ccc4c(c3)OCO4)CC2)cc1OC
78

Quick one: give measured survival for O=C(CSc1nc2nccnc2c(=O)n1CCc1c[nH]c2ccccc12)Nc1ccc(F)cc1
42

Quick one: give measured survival for Oc1c(C(c2ccc(F)cc2)N2CCN(Cc3ccccc3)CC2)sc2nc(-c3ccco3)nn12 (configuration not stated)
89

Quick one: give measured survival for Cc1ccccc1CNC(=O)Cn1ncn2nc(-c3cccs3)cc2c1=O
120

Quick one: give measured survival for Cc1ccccc1CN1C(=O)c2ccccc2Sc2ccc(C(=O)N3CCCC3)cc21
85

Quick one: give measured survival for CC1Cc2ccccc2N1C(=O)c1nc2ccccc2s1 (configuration not stated)
113

Quick one: give measured survival for CN1CCN(C(c2ccccc2Cl)c2sc3nc(-c4ccco4)nn3c2O)CC1 (configuration not stated)
129

----------
Test system: Wild type
Experiment: S. aureus survival, RN4220 and DeltatarO strains – OD600, teichoic acid synthesis inhibitors, primary screen (AID 463173)
Conditions: S. aureus RN4220 wild type/DeltatarO growth, OD600, 18 h, screened at 18.75 µg/mL (by protocol)
In all, about 52,000 compounds went through this assay and about 1,700 (3.3%) were called active. No stated cut-off is given here; in the data, active means survival mostly below about 52% (no sharp cut-off); inactive means mostly above about 56%. The full list was thinned out, with actives kept by preference.
Allowed answers: class 1 for active, class 0 for inactive

Short answer needed: outcome of this test for COc1ccc(NC(=O)c2ccc3c(c2)c(C)c(C)n3Cc2ccc(F)cc2)c(OC)c1 ?
class 0

Short answer needed: outcome of this test for COC(=O)c1cnc(N2CCN(c3ccccc3F)CC2)c2ccccc12 ?
class 0

Short answer needed: outcome of this test for Cc1ccccc1NC(=O)c1ccc(F)c(S(=O)(=O)N(C)Cc2ccccc2)c1 ?
class 0

Short answer needed: outcome of this test for CCOC(=O)c1cnc2ccc(OCC)cc2c1N1CCN(c2ccccc2F)CC1 ?
class 1

Short answer needed: outcome of this test for CCOC(=O)c1cc(S(=O)(=O)N2CCN(c3ccccc3OC)CC2)[nH]n1 ?
class 0

Short answer needed: outcome of this test for Cc1ccc(-c2nc(CCNC(=O)C(=O)Nc3ccc(F)cc3F)cs2)cc1 ?
class 0

Short answer needed: outcome of this test for CCCOc1cccc(C2c3c(-c4ccccc4O)n[nH]c3C(=O)N2Cc2ccco2)c1 (stereo not given) ?
class 1

Short answer needed: outcome of this test for CCOc1cccc(C2c3c(-c4cc(C)ccc4O)n[nH]c3C(=O)N2Cc2ccco2)c1 (stereo not given) ?
class 0

Short answer needed: outcome of this test for CCc1ccc(C(=O)c2cn(CC(=O)Nc3ccc(OC)cc3)c3cc4c(cc3c2=O)OCCO4)cc1 ?
class 0

Short answer needed: outcome of this test for O=C(CSc1nc2c([nH]c3ccccc32)c(=O)n1-c1ccccc1)Nc1ccc2c(c1)OCCO2 ?
class 0
